Molecular target: human TLR7 (Homo sapiens, UniProt Q9NYK1)
Sequence (Q9NYK1 27-1049): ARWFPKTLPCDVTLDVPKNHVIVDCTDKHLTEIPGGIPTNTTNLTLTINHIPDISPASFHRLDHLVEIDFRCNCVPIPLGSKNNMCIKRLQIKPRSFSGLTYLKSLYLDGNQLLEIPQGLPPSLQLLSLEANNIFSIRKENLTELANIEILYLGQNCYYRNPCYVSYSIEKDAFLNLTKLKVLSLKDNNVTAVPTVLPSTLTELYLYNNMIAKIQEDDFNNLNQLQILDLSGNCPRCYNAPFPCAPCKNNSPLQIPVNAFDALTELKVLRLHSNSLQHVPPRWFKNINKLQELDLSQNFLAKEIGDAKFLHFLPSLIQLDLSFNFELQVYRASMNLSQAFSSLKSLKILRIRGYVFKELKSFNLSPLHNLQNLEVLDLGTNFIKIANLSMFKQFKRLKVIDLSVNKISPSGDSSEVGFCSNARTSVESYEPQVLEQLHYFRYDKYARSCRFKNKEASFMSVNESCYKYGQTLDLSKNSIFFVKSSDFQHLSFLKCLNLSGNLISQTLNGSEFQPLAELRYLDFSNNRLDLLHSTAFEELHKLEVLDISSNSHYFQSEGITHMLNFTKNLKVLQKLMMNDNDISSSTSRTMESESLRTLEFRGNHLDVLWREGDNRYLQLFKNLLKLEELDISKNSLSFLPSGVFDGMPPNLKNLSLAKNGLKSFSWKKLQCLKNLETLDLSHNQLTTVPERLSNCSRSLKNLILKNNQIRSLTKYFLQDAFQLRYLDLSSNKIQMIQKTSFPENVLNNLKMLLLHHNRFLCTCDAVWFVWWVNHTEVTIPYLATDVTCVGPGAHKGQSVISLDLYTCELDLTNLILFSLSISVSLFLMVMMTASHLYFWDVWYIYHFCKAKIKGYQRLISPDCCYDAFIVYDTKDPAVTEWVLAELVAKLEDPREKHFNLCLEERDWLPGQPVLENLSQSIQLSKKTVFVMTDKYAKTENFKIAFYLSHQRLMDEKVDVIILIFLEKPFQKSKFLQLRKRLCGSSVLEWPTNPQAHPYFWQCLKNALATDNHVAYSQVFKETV
Assay: TLR7 inhibition reporter assay (HEK-Blue cells, SEAP reporter, gardiquimod stimulation)
Conditions: HEK-Blue cells overexpressing human TLR7, SEAP reporter, gardiquimod 7.5 μM
Text: TLR7/8/9 Inhibition Reporter Assays HEK-Blue™-cells (Invivogen) overexpressing human TLR7, TLR8 or TLR9 receptors were used for screening inhibitors of these receptors using an inducible SEAP (secreted embryonic alkaline phosphatase) reporter gene under the control of the IFN-β minimal promoter fused to five NF-κB and AP-1-binding sites. […]
measurementLabel: IC50

Some compounds with recorded IC50:
compound	targetOrSystem	IC50
CC(C)c1c(-c2ccc3cc[nH]c3c2)[nH]c2ccc(C3CCNCC3)cc12	human TLR7 (Homo sapiens, UniProt Q9NYK1)	1000 to 50000 nM
CC(C)c1c(-c2ccnc3[nH]ncc23)[nH]c2ccc(C3CCN(C4CCNCC4C)CC3)cc12 (stereo not shown)	human TLR7 (Homo sapiens, UniProt Q9NYK1)	< 100 nM
CCc1c(-c2ccnc3[nH]ncc23)[nH]c2ccc(C3CCN(Cc4cscn4)CC3)cc12	human TLR7 (Homo sapiens, UniProt Q9NYK1)	< 100 nM

Next item in the queue.
For human TLR7 (Homo sapiens, UniProt Q9NYK1), give IC50 of the listed compound: `CNCCN1CCC(c2ccc3[nH]c(-c4ccc5c(c4)OCO5)c(C)c3c2)CC1`
100 to 1000 nM

* * *

Target: human TLR8 (Homo sapiens, UniProt Q9NR97)
Sequence (Q9NR97 27-1041): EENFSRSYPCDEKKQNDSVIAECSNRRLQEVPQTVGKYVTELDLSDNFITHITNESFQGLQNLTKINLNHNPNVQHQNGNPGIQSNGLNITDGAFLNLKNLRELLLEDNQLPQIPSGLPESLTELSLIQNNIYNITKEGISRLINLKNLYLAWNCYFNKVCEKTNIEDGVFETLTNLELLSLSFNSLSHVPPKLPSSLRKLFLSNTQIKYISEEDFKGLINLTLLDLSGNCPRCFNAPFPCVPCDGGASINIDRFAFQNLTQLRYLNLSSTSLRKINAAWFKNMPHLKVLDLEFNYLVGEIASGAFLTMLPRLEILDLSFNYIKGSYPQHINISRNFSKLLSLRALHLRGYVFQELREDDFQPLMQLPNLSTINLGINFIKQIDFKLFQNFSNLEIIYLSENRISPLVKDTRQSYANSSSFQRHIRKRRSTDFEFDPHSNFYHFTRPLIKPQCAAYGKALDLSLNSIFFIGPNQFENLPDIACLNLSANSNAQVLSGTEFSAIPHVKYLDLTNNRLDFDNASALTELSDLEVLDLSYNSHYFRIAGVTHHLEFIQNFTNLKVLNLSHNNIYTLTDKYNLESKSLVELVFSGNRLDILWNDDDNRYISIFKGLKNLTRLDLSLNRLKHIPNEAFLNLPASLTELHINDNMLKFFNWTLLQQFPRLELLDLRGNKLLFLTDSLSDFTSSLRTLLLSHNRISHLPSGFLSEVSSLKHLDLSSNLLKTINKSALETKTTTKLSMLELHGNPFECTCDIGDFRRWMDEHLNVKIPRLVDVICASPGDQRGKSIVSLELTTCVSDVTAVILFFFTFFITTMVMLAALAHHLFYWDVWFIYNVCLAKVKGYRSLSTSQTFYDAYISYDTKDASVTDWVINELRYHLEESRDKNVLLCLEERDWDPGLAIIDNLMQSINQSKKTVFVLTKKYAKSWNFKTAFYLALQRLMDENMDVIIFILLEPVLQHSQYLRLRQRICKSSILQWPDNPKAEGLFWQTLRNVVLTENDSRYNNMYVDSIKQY
Assay: TLR8 inhibition reporter assay (HEK-Blue cells, SEAP reporter, R848 stimulation)
Details: HEK-Blue cells overexpressing human TLR8, SEAP reporter, R848 15.9 μM
pIC50: −log10 of the molar value.
measurementLabel: pIC50

compound	reportedResult
CC(C)c1c(-c2ccn3nccc3n2)[nH]c2ccc(C3CCNCC3)cc12	6.00 to 7.00
Cc1nnn2ccc(-c3[nH]c4ccc(C5CCN(C6COC6)CC5)cc4c3C(C)C)cc12	> 7.00
Cc1cn2cc(-c3[nH]c4ccc(C5CCN(C(=O)C[C@@H](C)O)CC5)cc4c3CC(F)F)ccc2n1	< 5.51
CCc1c(-c2ccnc3[nH]ncc23)[nH]c2ccc(C3CCN(C(C)C)CC3)cc12	> 7.00
CC(C)c1c(-c2ccn3cnnc3c2)[nH]c2ccc(C3CCN(C(=O)CN(C)C)CC3)cc12	6.00 to 7.00
CC(C)c1c(-c2ccn3ncnc3c2)[nH]c2ccc(C3CCNCC3)cc12	> 7.00

Return pIC50 (reported value) for this compound: `CCN(C)CC(=O)N1CCC(c2ccc3[nH]c(-c4cc(C)c5nnnn5c4)c(C(C)C)c3c2)CC1`
> 7.00

Return pIC50 (reported value) for this compound: `COc1cc(-c2[nH]c3ccc(C4CCN(C(=O)CN(C)C)CC4)cc3c2C(C)C)cc2nc(C)cn12`
6.00 to 7.00

Return pIC50 (reported value) for this compound: `CC(C)c1c(-c2ccn3ccnc3c2)[nH]c2ccc(C3CCNCC3)cc12`
> 7.00

Return pIC50 (reported value) for this compound: `CCc1c(-c2ccc3nccn3c2)[nH]c2cc(F)c(C3CCNCC3)c(F)c12`
> 7.00

Return pIC50 (reported value) for this compound: `CC(C)c1c(-c2cc(Cl)c3ncccc3c2)[nH]c2ccc(C3CCN(C(=O)CN(C)C)CC3)cc12`
> 7.00

Return pIC50 (reported value) for this compound: `FC(F)Cc1c(-c2ccnc3[nH]ccc23)[nH]c2ccc(C3CCNCC3)cc12`
> 7.00

* * *

target: human TLR9 (Homo sapiens, UniProt Q9NR96); assay: TLR9 inhibition reporter assay (HEK-Blue cells, SEAP reporter, ODN2006 stimulation); details: HEK-Blue cells overexpressing human TLR9, SEAP reporter, ODN2006 5 nM
Sequence (Q9NR96 26-1032): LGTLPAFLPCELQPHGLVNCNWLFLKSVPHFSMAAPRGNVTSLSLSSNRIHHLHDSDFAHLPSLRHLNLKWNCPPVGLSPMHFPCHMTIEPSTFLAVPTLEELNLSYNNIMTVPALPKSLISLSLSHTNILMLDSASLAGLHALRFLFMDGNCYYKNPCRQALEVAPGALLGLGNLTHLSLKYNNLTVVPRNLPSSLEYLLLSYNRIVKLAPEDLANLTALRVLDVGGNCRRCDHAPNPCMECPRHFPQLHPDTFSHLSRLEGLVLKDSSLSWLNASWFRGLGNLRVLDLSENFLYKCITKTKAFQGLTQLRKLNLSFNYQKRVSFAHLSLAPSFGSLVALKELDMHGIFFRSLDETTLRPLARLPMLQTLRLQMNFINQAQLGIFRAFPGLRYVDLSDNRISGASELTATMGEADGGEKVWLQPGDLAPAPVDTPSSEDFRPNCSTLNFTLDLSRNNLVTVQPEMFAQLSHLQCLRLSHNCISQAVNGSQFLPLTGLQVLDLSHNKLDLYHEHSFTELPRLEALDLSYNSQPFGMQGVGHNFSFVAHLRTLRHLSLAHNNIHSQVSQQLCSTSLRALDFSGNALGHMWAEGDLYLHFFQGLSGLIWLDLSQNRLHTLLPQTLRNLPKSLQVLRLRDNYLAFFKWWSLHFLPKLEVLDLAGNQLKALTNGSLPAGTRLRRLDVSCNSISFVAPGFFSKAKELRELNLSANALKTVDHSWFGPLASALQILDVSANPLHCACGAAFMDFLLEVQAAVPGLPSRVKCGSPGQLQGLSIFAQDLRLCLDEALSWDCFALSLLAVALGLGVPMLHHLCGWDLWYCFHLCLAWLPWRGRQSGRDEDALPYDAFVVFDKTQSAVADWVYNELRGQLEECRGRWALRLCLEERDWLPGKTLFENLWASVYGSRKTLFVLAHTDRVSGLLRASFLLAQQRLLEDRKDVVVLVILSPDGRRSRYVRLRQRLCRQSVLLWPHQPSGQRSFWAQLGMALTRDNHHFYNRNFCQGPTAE
pIC50: −log10 of the molar value.
measurementLabel: pIC50

Some molecules with recorded pIC50:
molecule	targetOrSystem	pIC50
CCc1c(-c2cccc3[nH]ncc23)[nH]c2ccc(C3CCNCC3)cc12	human TLR9 (Homo sapiens, UniProt Q9NR96)	4.30 to 6.00
CCc1c(-c2ccnc3[nH]ncc23)[nH]c2ccc(C3CCN(Cc4coc(C)n4)CC3)cc12	human TLR9 (Homo sapiens, UniProt Q9NR96)	4.30 to 6.00
CC(C)c1c(-c2ccn3cnnc3c2)[nH]c2ccc(C3CCN(C4COC4)CC3)cc12	human TLR9 (Homo sapiens, UniProt Q9NR96)	4.30 to 6.00
CNC(=O)c1cn2cc(-c3[nH]c4ccc(C5CCN(C(=O)CN(C)C)CC5)cc4c3C(C)C)cc(C)c2n1	human TLR9 (Homo sapiens, UniProt Q9NR96)	6.00 to 7.00
CC(C)c1c(-c2ccnc3[nH]ncc23)[nH]c2ccc(C3CCN(C4CCCNCC4)CC3)cc12 (centres unmarked)	human TLR9 (Homo sapiens, UniProt Q9NR96)	6.00 to 7.00
Cc1cc(-c2[nH]c3ccc(C4CCN(C(=O)CN5CC6(COC6)C5)CC4)cc3c2C(C)C)cn2nnnc12	human TLR9 (Homo sapiens, UniProt Q9NR96)	4.30 to 6.00
Cc1cc(-c2[nH]c3ccc(C4CCN(C(=O)CN(C)C)CC4)cc3c2C(C)C)nc2scnc12	human TLR9 (Homo sapiens, UniProt Q9NR96)	4.30 to 6.00

Next item in the queue.
Return pIC50 (reported value) for this molecule: `CC(C)c1c(-c2ccn3nncc3c2)[nH]c2ccc(C3CCN(C(=O)CN(C)C)CC3)cc12`
4.30 to 6.00
